B1: BTBD1 (parent)
chain: FVLGKGRGAAAAGGPQRIPAHRFV

Variants of: B1
Experiment: protein stability index of a GFP-peptide fusion (GPS, HEK-293T) (PSI 1-6); higher = more stable;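 further: lentivirally expressed fusions sorted by FACS into six bins by GFP to DsRed ratio, PSI derived from sequencing read proportions per bin multiplied by bin number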
Conditions: c terminus: a fixed tail appended
Class label 1: protein stability index at least 2. Class label 0: protein stability index below 2.

q: Is protein stability index at least 2? Consider FVLGKGRGAAAAGGPQRIPLHRFV [A20L]
a: label 0

q: Record FVLGKGRGAAAAGGPQYIPAHRFV [R17Y] ; criterion: protein stability index no lower than 2. Met?
a: label 0

q: Entry FVLGKGRGAAAAGGPQWIPAHRFV [R17W] : is its protein stability index no less than 2?
a: label 0

q: Could you please find out whether AVLGKGRGAAAAGGPQRIPAHRFV [F1A] has protein stability index that meets 2 or exceeds it?
a: label 1

q: Does protein stability index meet or surpass 2 for FVLGKGRGAAAAGGPQRIPALRFV [H21L] ?
a: label 1

q: Threshold query (protein stability index >= 2) on FQLGKGRGAAAAGGPQRIPAHRFV [V2Q]
a: label 1

q: Does protein stability index meet or surpass 2 for FVLSKGRGAAAAGGPQRIPAHRFV [G4S] ?
a: label 0

q: Decide: protein stability index of FVLGKGRGAAAAGGVQRIPAHRFV [P15V] >= 2?
a: label 0

q: Is protein stability index at least 2? Consider FVLGKGRGAAAAGGPQRDPAHRFV [I18D]
a: label 1

q: Can FVLVKGRGAAAAGGPQRIPAHRFV [G4V] be said to have protein stability index at or above 2?
a: label 1

q: Does protein stability index meet or surpass 2 for FVLGTGRGAAAAGGPQRIPAHRFV [K5T] ?
a: label 1
